# Tested on: PfAP2-G AP2 domain (GST-tagged)
# test method notes: gcPBM binding intensity (ln(normalized median fluorescence intensity)); higher = stronger DNA binding
Over roughly 25,000 sequences, “ln(normalized median fluorescence intensity)” has its median near 10; the highest 2% begin near 12. The full list was thinned out, with the highest values kept by preference.
Item-by-item account of gcPBM binding intensity (ln)
# answer = number (no unit)

# count of solved cases: 5
# seq text, target under test, gcPBM binding intensity (ln)
measured = [
    ("TGAAAATAGTTAATTTGTACACAAAAATTAAGAAAA [XGTACX_site5794]", "PfAP2-G AP2 domain (GST-tagged)", 11.2),
    ("TTAAAAAAAAAAAAAAGTACACACTTATAAAATATT [XGTACX_site1630]", "PfAP2-G AP2 domain (GST-tagged)", 11.6),
    ("ATATTATTTTAAAGTACACACATATATTAAGATATA [CACACA_site5306]", "PfAP2-G AP2 domain (GST-tagged)", 11.4),
    ("AGATAAAAAAAGTACACACACACATATATTTATATA [CACACA_site7437]", "PfAP2-G AP2 domain (GST-tagged)", 11.8),
    ("CATGTGCATATTAAATGTACATATATACATATATAC [XGTACX_site857]", "PfAP2-G AP2 domain (GST-tagged)", 10.9),
]

Exercise: Query (sequence): ATATTAATATACATATGTACATATATATATATATAT [XGTACX_site7425] ; field requested: gcPBM binding intensity (ln)
Solution: 11.2

Exercise: Query (sequence): TAAAATAAAAAAGTAGTACACACTTCACGATATTTT [CACACA_site3896] ; field requested: gcPBM binding intensity (ln)
Solution: 11.6

Exercise: Query (sequence): TTGTGTACATATTAAGTGCATATATATATATATATA ; field requested: gcPBM binding intensity (ln)
Solution: 11.7

Exercise: Query (sequence): TAAAGAAAAAAATGTTGTACTTTATGAAACATATTT [XGTACX_site412] ; field requested: gcPBM binding intensity (ln)
Solution: 11.2

Exercise: Query (sequence): TTATTTCTACCTTTTTGTACACATTATTATGAAACC [XGTACX_site5325] ; field requested: gcPBM binding intensity (ln)
Solution: 11.3

Exercise: Query (sequence): GTAAAAAAAAAAAAAAGTACATTATACATATATTTA [XGTACX_site5447] ; field requested: gcPBM binding intensity (ln)
Solution: 11.3

Exercise: Query (sequence): AAAAAAGATATATAAACACACATATTTATATACACA [CACACA_site6866] ; field requested: gcPBM binding intensity (ln)
Solution: 9.66

Exercise: Query (sequence): TATATATATATTTATACACACATTAGTGTATACATG [CACACA_site2950] ; field requested: gcPBM binding intensity (ln)
Solution: 10.3

Exercise: Query (sequence): ATTTATATATAATATACACACATATAATCCACATAT [CACACA_site699] ; field requested: gcPBM binding intensity (ln)
Solution: 10.2

Exercise: Query (sequence): AATATATTTATATAGTGTACATTTTTTATATATGTA [XGTACX_site8142] ; field requested: gcPBM binding intensity (ln)
Solution: 11.3

Exercise: Query (sequence): ATATATATATATATATGTACATATTTGATTTTTCTT [XGTACX_site8171] ; field requested: gcPBM binding intensity (ln)
Solution: 11.1

Exercise: Query (sequence): AATACAGATAATACAACACACAAGTAATATAAACCT [CACACA_site5900] ; field requested: gcPBM binding intensity (ln)
Solution: 9.97

Exercise: Query (sequence): AATTTTGAGATGTGGTGTACACAAAATTAGTTAGAC [XGTACX_site7033] ; field requested: gcPBM binding intensity (ln)
Solution: 11.7

Exercise: Query (sequence): AAAAAAAAAAAAAAAAGTACATATATTATATATATA [XGTACX_site2983] ; field requested: gcPBM binding intensity (ln)
Solution: 11.3

Exercise: Query (sequence): ATAAAATAAAAAAGTAGTACACACTTCACGATATTT [XGTACX_site8289] ; field requested: gcPBM binding intensity (ln)
Solution: 11.5

---

# System: PfAP2-G AP2 domain (GST-tagged)
# test method notes: gcPBM binding intensity (ln(normalized median fluorescence intensity)); higher = stronger DNA binding
Over roughly 25,000 sequences, “ln(normalized median fluorescence intensity)” has its median near 10; the highest 2% begin near 12. For the sample, the highest values were picked, then their nearest neighbours and some sequences at random.
measurement type: gcPBM binding intensity (ln)
# answer = number (no unit)

# count of solved cases: 4
# seq text, target under test, gcPBM binding intensity (ln)
rows = [
    ("TTTTAAAGTTGTGAGCTTCATTTTTATTTATATGTA [CACACA_negctrl_site1505]", "PfAP2-G AP2 domain (GST-tagged)", 9.87),
    ("AAAAAAATAAAACACATACATATATGTATATATATA [GTGCAC_negctrl_site390]", "PfAP2-G AP2 domain (GST-tagged)", 9.77),
    ("AAGAAAATTAAATTAACACACATAAATATATATATA [CACACA_site1664]", "PfAP2-G AP2 domain (GST-tagged)", 9.85),
    ("AGTTATATGTACTACACACGTACACAAAATAAGATA [CACACA_site3719]", "PfAP2-G AP2 domain (GST-tagged)", 11.6),
]

Moving on to the next sequence.
Exercise: Query (sequence): TTTTTTATGAGGTGGTGTACTTTTTTTTTTTTCTTT [XGTACX_site8550] ; field requested: gcPBM binding intensity (ln)
Solution: 11.7

---

Item-by-item account of gcPBM binding intensity (ln)
# Test system: PfAP2-G AP2 domain (GST-tagged)
# test method notes: gcPBM binding intensity (ln(normalized median fluorescence intensity)); higher = stronger DNA binding
Over roughly 25,000 sequences, “ln(normalized median fluorescence intensity)” has its median near 10; the highest 2% begin near 12. The list comes from a sample in which the highest values are over-represented; it also holds close analogues and randomly drawn sequences.
# answer = number (no unit)

# seq text, gcPBM binding intensity (ln)
data = [
    ("ATATATATATATAAATGTACATTGTGTGTTGTAAGA [XGTACX_site2434]", 10.8),
]

Exercise: Query (sequence): TATATATAAGCGTGTACACATTCTGAGTGTTGTATA [CACACA_site4502] ; field requested: gcPBM binding intensity (ln)
Solution: 11.7

Exercise: Query (sequence): AATAATTCTTAAAGGTGTACAATATGTATATAAGAA [XGTACX_site595] ; field requested: gcPBM binding intensity (ln)
Solution: 11.7

Exercise: Query (sequence): TTATATATTAATAGTAGTACTATATTGAATCACCCC [XGTACX_site2868] ; field requested: gcPBM binding intensity (ln)
Solution: 11.3

---

# Tested on: PfAP2-G AP2 domain (GST-tagged)
# test method notes: gcPBM binding intensity (ln(normalized median fluorescence intensity)); higher = stronger DNA binding
The full ranking holds about 25,000 sequences; the median of “ln(normalized median fluorescence intensity)” is about 10, and the highest 2% start at about 12. The sample holds the highest values, similar sequences and a random draw of the others, so the mix is not that of the screen.
Item-by-item account of gcPBM binding intensity (ln)
# answer = number (no unit)

# count of solved cases: 3
# seq text, reported
data = [
    ("AAAATTTTTTACTTTACACACATTTTGTATATTTTG [CACACA_site1730]", 9.98),
    ("ATTTTTTTTTAATGCAAAAGGTGATGATCGGTCATA [CACACA_negctrl_site959]", 10.2),
    ("CTCATCCTTACATACACACACATATATATATATATA [CACACA_site103]", 10.3),
]

Exercise: Query (sequence): GAATGTCTAATTTTGATGCACACTTTTGTGCAATTA [CACACA_site2902] ; field requested: gcPBM binding intensity (ln)
Solution: 10.2

Exercise: Query (sequence): AAAAAAGAACGCATAGTGCATATCTAAAAGATTTTT ; field requested: gcPBM binding intensity (ln)
Solution: 9.85

Exercise: Query (sequence): TATATTTACATTGTAACACACATGAAATATATATAT [CACACA_site61] ; field requested: gcPBM binding intensity (ln)
Solution: 9.93

Exercise: Query (sequence): AAAAAAAATTTTATCTGTACACATTTTTTTCTTTTT [XGTACX_site4229] ; field requested: gcPBM binding intensity (ln)
Solution: 11.6

Exercise: Query (sequence): TAGAATAATCTATAAACACACAAACACAACAAAAGA [CACACA_site7861] ; field requested: gcPBM binding intensity (ln)
Solution: 10.3

Exercise: Query (sequence): TTATAAAACACAAAATGTACAAAAAATTATAATTAA [XGTACX_site6859] ; field requested: gcPBM binding intensity (ln)
Solution: 10.7

Exercise: Query (sequence): TATAAATATATTTATACACACATTAGTGTATACATG [CACACA_site7397] ; field requested: gcPBM binding intensity (ln)
Solution: 10.2

Exercise: Query (sequence): TAAACACATTATATATGTACATAATAAAAAAAAAAA [XGTACX_site7907] ; field requested: gcPBM binding intensity (ln)
Solution: 11.2

Exercise: Query (sequence): AGGTCTATATAATAAGTGCATTTTTTTTTTTTTTTT [GTGCAC_site9664] ; field requested: gcPBM binding intensity (ln)
Solution: 10.2
